Cited source: the supplement of paper PMC10567573

B1: P2RY14 (parent)
chain: KKIFKSHLKSSRNSTSVKKKSSRN

variants of: B1; experiment: protein stability index of a GFP-peptide fusion (GPS, HEK-293T) (PSI 1-6); higher = more stable; details: c terminus: a fixed tail appended;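 also: lentivirally expressed fusions sorted by FACS into six bins by GFP to DsRed ratio, PSI derived from sequencing read proportions per bin multiplied by bin number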
Catalogue of variants with associated protein stability index
Give a plain numeric answer without units written out.

Record excerpt, results attached:
Variant notation	protein stability index
V17S	4.03
K20L	3.42
S10K	4.15
S14N	4.44
I3T	4.66
S10H	4.14

Alright, here's another variant for you.
So for K5C , the logged protein stability index turned out to be 4.05
